These entries and their values trace back to patent US8030500B2.

- study-system: human β-Secretase (Homo sapiens, UniProt P56817)
- Construct: soluble part of the human β-Secretase (AA 1-AA 460); Fc domain of IgG1; made in house
- Sequence (P56817 22-460): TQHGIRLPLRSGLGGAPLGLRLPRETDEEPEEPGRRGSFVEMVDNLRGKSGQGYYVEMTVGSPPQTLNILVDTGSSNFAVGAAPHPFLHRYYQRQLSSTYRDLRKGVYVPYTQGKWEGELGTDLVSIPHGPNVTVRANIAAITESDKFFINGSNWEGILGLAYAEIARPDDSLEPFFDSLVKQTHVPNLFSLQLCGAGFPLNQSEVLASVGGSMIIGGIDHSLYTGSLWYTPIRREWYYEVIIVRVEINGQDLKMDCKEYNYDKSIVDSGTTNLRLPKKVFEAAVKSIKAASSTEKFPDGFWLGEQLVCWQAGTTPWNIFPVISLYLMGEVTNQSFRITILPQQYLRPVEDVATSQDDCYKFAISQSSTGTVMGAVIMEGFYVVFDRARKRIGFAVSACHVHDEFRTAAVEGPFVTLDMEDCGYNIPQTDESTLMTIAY
- measurement-protocol: TR-FRET assay (β-secretase enzyme, sBACE-Fc)
- Type: biochemical
- condition-label: soluble human β-secretase (sBACE-Fc), substrate (Europium)[…](Qsy7) 100 nM, pH4.5; read-out: IC50 in TR-FRET assay
pIC50: −log10 of the molar value. Where a name gives a salt, the structure may show the parent alone.
In this section we review reported pIC50 values for a set of molecules.
assay-metric: pIC50

INSERT INTO measurements (molecule, result_value) VALUES
  ('Cc1cc(C2(c3ccnc(-c4cncnc4)c3)N=C(N)c3c(F)cccc32)cc(C(F)F)n1 (centres unmarked)', 6.14),
  ('COc1cc(C2(c3cccc(-c4cncnc4)c3)N=C(N)c3c(F)cccc32)cc(F)c1F (centres unmarked)', 6.16),
  ('COc1cc(C2(c3cccc(-c4cncnc4)c3)N=C(N)c3c(F)cccc32)ccc1F (centres unmarked)', 6.46),
  ('Cc1cc(C2(c3cc(-c4cccnc4)ccc3F)N=C(N)c3c(F)cccc32)ccn1 (centres unmarked)', 5.77),
  ('N#Cc1cncc(-c2cccc(C3(c4ccnc(C(F)(F)F)c4)N=C(N)c4c(F)cccc43)c2)c1 (centres unmarked)', 6.60),
  ('COc1c(C)cc(C2(c3cccc(-c4cncnc4)c3)N=C(N)c3c(F)cccc32)cc1CC#N (centres unmarked)', 7.08),
  ('COc1c(C)cc(C2(c3ccnc(-c4cncnc4)c3)N=C(N)c3c(F)cccc32)cc1F (centres unmarked)', 7.09),
  ('Cc1cc(C2(c3cccc(-c4cncnc4)c3)N=C(N)c3c(F)cccc32)nc(C)n1 (centres unmarked)', 6.57),
  ('Cc1cc(C2(c3cccc(-c4cncc(C#N)c4)c3)N=C(N)c3c(F)cccc32)cc(C)n1 (centres unmarked)', 6.06),
  ('NC1=NC(c2ccncc2)(c2cccc(-c3cccc(Cl)c3)c2)c2cccc(F)c21 (centres unmarked)', 7.12),
  ('N#Cc1cncc(-c2cc(C3(c4ccncc4)N=C(N)c4c(F)cccc43)ccc2F)c1 (centres unmarked)', 6.34),
  ('CS(=O)(=O)c1cncc(-c2ccc(F)c(C3(c4ccnc(C(F)(F)F)c4)N=C(N)c4c(F)cccc43)c2)c1 (centres unmarked)', 4.92),
  ('COc1ccc(C2(c3cccc(-c4cncnc4)c3)N=C(N)c3c(F)cccc32)cc1 (centres unmarked)', 6.96),
  ('NC1=NC(c2cccc(-c3cncnc3)c2)(c2ccnc(C(F)(F)F)c2)c2cccc(F)c21 (centres unmarked)', 6.62),
  ('NC1=NC(c2ccnc(-c3cncnc3)c2)(c2ccnc(C(F)F)c2)c2cccc(F)c21 (centres unmarked)', 6.51),
  ('NC1=NC(c2cccc(-c3cncnc3)c2)(c2ccnc(C(F)(F)F)c2)c2cc(Cl)cc(F)c21 (centres unmarked)', 6.82),
  ('NC1=NC(c2cccc(-c3cnccn3)c2)(c2ccnc(C3CC3)c2)c2cccc(F)c21 (centres unmarked) [Example 37, trifluoroacetate]', 7.06);

---

- study-system: human β-Secretase (Homo sapiens)
- Construct: soluble part of the human β-Secretase (AA 1-AA 460); Fc domain of IgG1; made in house
- measurement-protocol: TR-FRET assay (β-secretase enzyme, sBACE-Fc)
- Type: biochemical
- condition-label: soluble human β-secretase (sBACE-Fc), substrate (Europium)[…](Qsy7) 100 nM, pH4.5; read-out: IC50 in TR-FRET assay
assay-metric: IC50 (nM)

INSERT INTO assay_data (compound, assay_metric, result_value) VALUES
  ('COc1ncc(C2(c3cccc(-c4cncnc4)c3)N=C(N)c3c(F)cccc32)cc1C(F)(F)F (centres unmarked)', 'IC50', 600),
  ('COc1c(C)cc(C2(c3ccnc(-c4cncnc4)c3)N=C(N)c3c(F)cccc32)cc1C (centres unmarked)', 'IC50', 35),
  ('COc1ccnc(-c2cccc(C3(c4ccnc(OC)c4)N=C(N)c4c(F)cccc43)c2)c1 (centres unmarked)', 'IC50', 430),
  ('NC1=NC(c2ccncc2)(c2cccc(-c3cncc(F)c3)c2)c2cccc(F)c21 (centres unmarked)', 'IC50', 140),
  ('Cc1cc(C2(c3cc(-c4cncc(C#N)c4)ccc3F)N=C(N)c3c(F)cccc32)ccn1 (centres unmarked)', 'IC50', 1800),
  ('Cc1cc(C2(c3cc(-c4cncnc4)ccc3F)N=C(N)c3c(F)cccc32)ccn1 (centres unmarked)', 'IC50', 1600),
  ('NC1=NC(c2ccnc(C(F)(F)F)c2)(c2ccc(O)c(-c3cnccn3)c2)c2cccc(F)c21 (centres unmarked)', 'IC50', 420),
  ('COc1cc(C2(c3cccc(-c4cc(C#N)ccn4)c3)N=C(N)c3c(F)cccc32)ccn1 (centres unmarked)', 'IC50', 1100);
